The origin of these recorded values is the RNAGym collection of RNA variant scans (doi:10.1021/acssynbio.7b00057).

B1: Pistol ribozyme (parent)
chain: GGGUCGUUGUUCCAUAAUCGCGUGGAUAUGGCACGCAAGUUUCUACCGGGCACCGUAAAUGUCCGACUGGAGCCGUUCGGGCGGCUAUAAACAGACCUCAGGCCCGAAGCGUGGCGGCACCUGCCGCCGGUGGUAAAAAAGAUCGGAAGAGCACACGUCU

variants of: B1; test: aptazyme ON/OFF ratio, guanine; higher = stronger switching; co-transcriptional cleavage with and without guanine
Reported metric: aptazyme ON/OFF ratio
One number for each entry.

Recorded results for 5 variants are shown here.
| Mutation descriptor | aptazyme ON/OFF ratio |
| --- | --- |
| U8C U10A U11A C12U C13G | 1.3 |
| U7A U8C G9U U10A U11A C12A C13A | 1.17 |
| U7C G9C U10G U11G C13G | 1.11 |
| U8A G9C U11C C12G | 1.07 |
| U7G G9C U10A U11A C12G | 1.7 |

Hi! Can you tell me aptazyme ON/OFF ratio for each of these variants?
1. U7G G9U U10C C12U
2. U7C G9C U10G C12A C13A
3. U8G G9A U10G U11C C12G C13G
4. U7A U8C G9A U10A U11C C12A C13U
5. U7G U8G U10C C12G C13G

1: 1.51; 2: 1.15; 3: 1.25; 4: 1.25; 5: 1.54

Please report aptazyme ON/OFF ratio for every entry that follows.
1. U8A G9A U10A C12G
2. U7C G9A U10A U11G C12U

1. 1.17
2. 1.31
